Overview of recorded MFI (mean fluorescence intensity) 0 h for various binders
- Test system: T1, human Nectin-4, full length on cells (human, UniProt Q96NY8 32-510)
- T1 construct: whole, on cells; T-47D cells positive for Nectin-4 expression; also called Nectin-4 on T-47D cells; CHO-Nectin-4
- T1 sequence (looked up): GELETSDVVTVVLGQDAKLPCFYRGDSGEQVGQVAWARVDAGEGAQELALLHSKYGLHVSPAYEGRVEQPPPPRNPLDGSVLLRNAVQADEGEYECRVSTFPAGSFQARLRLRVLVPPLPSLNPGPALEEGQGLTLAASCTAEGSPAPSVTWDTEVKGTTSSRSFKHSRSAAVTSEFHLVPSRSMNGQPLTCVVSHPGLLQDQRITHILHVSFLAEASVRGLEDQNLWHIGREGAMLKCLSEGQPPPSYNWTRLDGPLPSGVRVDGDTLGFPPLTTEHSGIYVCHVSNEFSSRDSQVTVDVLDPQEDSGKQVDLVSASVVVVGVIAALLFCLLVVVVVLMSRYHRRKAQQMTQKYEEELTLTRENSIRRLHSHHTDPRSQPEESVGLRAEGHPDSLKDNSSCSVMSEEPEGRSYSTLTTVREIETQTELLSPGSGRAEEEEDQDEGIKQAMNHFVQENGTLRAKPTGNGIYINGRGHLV
- Measurement protocol: flow cytometry, T-47D cells, antibody bound on ice, 0 h at 37 C
- Experimental: In this assay, the relative amount of antibodies remaining on the cell surface after co-incubation at 37° C. for a certain period of time was detected by FACS to reflect the endocytosis efficiency. […]
The reply should be a number in MFI, with the unit left off.

Answered cases to consult:
>  <Binder>
antibody 1F3-1G11 (antibody, human IgG1, kappa, V domains shown) VH: EVQLVESGGGLVQPGGSLRLSCAASGYSFTGYGMSWVRQAPGKGLEWVSGISPSGGTIGYADSVKGRFTISRDNSKNTLYLQMNSLRAEDTAVYYCARAELLAFDVYTASDYWGQGTLVTVSS VL: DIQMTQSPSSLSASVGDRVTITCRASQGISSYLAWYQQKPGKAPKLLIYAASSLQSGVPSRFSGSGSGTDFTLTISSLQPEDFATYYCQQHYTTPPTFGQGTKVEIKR

>  <MFI (mean fluorescence intensity) 0 h (MFI)>
60500

$$$$
>  <Binder>
reference antibody ASG-22 (antibody, human IgG1, kappa, V domains shown) VH: EVQLVESGGGLVQPGGSLRLSCAASGFTFSSYNMNWVRQAPGKGLEWVSYISSSSSTIYYADSVKGRFTISRDNAKNSLSLQMNSLRDEDTAVYYCARAYYYGMDVWGQGTLVTVSS VL: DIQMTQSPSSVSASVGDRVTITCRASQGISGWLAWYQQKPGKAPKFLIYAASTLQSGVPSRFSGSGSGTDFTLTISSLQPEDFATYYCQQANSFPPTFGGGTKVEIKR

>  <MFI (mean fluorescence intensity) 0 h (MFI)>
58600

$$$$
>  <Binder>
antibody 1F3-1B1 (antibody, human IgG1, kappa, V domains shown) VH: EVQLVESGGGLVQPGGSLRLSCAASGFTFGTYGMSWVRQAPGKGLEWVSGIKPGDSTTYYADSVKGRFTISRDNSKNTLYLQMNSLRAEDTAVYYCARAELLAFDVYTASDYWGQGTLVTVSS VL: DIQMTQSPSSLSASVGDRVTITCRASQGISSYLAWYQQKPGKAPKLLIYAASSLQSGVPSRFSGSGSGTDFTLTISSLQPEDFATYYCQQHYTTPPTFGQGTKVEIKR

>  <MFI (mean fluorescence intensity) 0 h (MFI)>
65300

$$$$
>  <Binder>
antibody 10F4-5 (antibody, human IgG1, kappa, V domains shown) VH: EVQLVESGGGLVQPGGSLRLSCAASGFIFDGYDMSWVRQAPGKGLEWVSVIKDHGGYKFYADSVKGRFTISRDNSKNTLYLQMNSLRAEDTAVYYCAREYSDVVDYVSVRTPLDYWGQGTLVTVSS VL: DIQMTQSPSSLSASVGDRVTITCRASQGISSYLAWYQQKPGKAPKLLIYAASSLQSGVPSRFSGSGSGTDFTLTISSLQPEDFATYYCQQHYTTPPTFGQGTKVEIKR

>  <MFI (mean fluorescence intensity) 0 h (MFI)>
63400

$$$$
>  <Binder>
antibody 1F3-2F3 (antibody, human IgG1, kappa, V domains shown) VH: EVQLVESGGGLVQPGGSLRLSCAASGFNFSDYGMSWVRQAPGKGLEWVSRIDWDGGNTRYADSVKGRFTISRDNSKNTLYLQMNSLRAEDTAVYYCARAELLAFDVYTASDYWGQGTLVTVSS VL: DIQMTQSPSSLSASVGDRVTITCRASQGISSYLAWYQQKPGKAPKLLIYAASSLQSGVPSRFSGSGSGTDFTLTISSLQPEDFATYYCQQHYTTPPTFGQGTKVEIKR

>  <MFI (mean fluorescence intensity) 0 h (MFI)>
69000

$$$$
>  <Binder>
antibody 1F3-2E8 (antibody, human IgG1, kappa, V domains shown) VH: EVQLVESGGGLVQPGGSLRLSCAASGYSFSDYGMSWVRQAPGKGLEWVSWISPSKGSASYADSVKGRFTISRDNSKNTLYLQMNSLRAEDTAVYYCARAELLAFDVYTASDYWGQGTLVTVSS VL: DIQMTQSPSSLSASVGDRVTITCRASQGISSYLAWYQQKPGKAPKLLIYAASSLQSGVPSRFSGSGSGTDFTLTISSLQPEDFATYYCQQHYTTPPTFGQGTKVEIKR

>  <MFI (mean fluorescence intensity) 0 h (MFI)>
58200

$$$$
>  <Binder>
antibody 1F3-2B1 (antibody, human IgG1, kappa, V domains shown) VH: EVQLVESGGGLVQPGGSLRLSCAASGYNFDNYAMSWVRQAPGKGLEWVSGIKPDSATTYYADSVKGRFTISRDNSKNTLYLQMNSLRAEDTAVYYCARAELLAFDVYTASDYWGQGTLVTVSS VL: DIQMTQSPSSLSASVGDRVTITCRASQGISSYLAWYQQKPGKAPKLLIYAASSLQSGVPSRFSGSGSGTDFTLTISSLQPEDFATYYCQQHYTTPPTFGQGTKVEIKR

>  <MFI (mean fluorescence intensity) 0 h (MFI)>
59400

$$$$
>  <Binder>
antibody 10F4-1 (antibody, human IgG1, kappa, V domains shown) VH: EVQLVESGGGLVQPGGSLRLSCAASGDSFTNYWMSWVRQAPGKGLEWVSGISQGGSYAYYADSVKGRFTISRDNSKNTLYLQMNSLRAEDTAVYYCAREYSDVVDYVSVRTPLDYWGQGTLVTVSS VL: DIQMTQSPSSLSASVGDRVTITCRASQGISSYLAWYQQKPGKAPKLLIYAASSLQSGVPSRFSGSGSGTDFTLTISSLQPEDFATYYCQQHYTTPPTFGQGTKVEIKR

>  <MFI (mean fluorescence intensity) 0 h (MFI)>
58600

$$$$

Sample antibody 10F4-3 (antibody, human IgG1, kappa, V domains shown) VH: EVQLVESGGGLVQPGGSLRLSCAASGFSFGDFAMSWVRQAPGKGLEWVSVIDGHTAYNSYADSVKGRFTISRDNSKNTLYLQMNSLRAEDTAVYYCAREYSDVVDYVSVRTPLDYWGQGTLVTVSS VL: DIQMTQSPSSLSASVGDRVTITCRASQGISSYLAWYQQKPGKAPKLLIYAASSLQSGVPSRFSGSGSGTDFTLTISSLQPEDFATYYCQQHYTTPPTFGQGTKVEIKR — what was its MFI (mean fluorescence intensity) 0 h? 61200

Okay, and antibody 1F3-1E1 (antibody, human IgG1, kappa, V domains shown) VH: EVQLVESGGGLVQPGGSLRLSCAASGFSFDDYAMSWVRQAPGKGLEWVSIIYPTGSTNYYADSVKGRFTISRDNSKNTLYLQMNSLRAEDTAVYYCARAELLAFDVYTASDYWGQGTLVTVSS VL: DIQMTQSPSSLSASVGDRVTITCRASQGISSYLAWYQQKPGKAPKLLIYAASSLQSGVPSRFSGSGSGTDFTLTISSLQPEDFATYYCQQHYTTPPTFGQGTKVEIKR ? 73400
